The origin of these recorded values is PubChem BioAssay (NCI).

run-description: NCI Yeast Anticancer Drug Screen. Data for the mec2-1 strain (AID 157)
test-context: S. cerevisiae mec2-1 strain, at 50.0 µM (retest, dose inferred, filed as 5.0), hits give high values
About 79,000 compounds went through this panel and 15% of them were active in at least one assay; those are over-represented in the sample as a whole.
property-measured: growth inhibition (%)
Report the value in % with no unit label.

Query string: Given the compound CNC1=C2NC(=O)/C(C)=C\C=C\C(C)C(O)C(C)C(O)C(C)C(OC(C)=O)C(C)C(OC)/C=C/OC3(C)Oc4c(C)c(O)c(c(c4C3=O)C1=O)C2=O (centres undefined) , what is its reported growth inhibition?
Result string: 61

Query string: Quick one: growth inhibition of `CCOC(=O)[C@@H](F)[C@H](Br)C(=O)OCC` ?
Result string: 100

Query string: State the recorded growth inhibition for this entry: `CCCCCC/C=C/C#CCCCCCCCC(=O)O`
Result string: 11

Query string: Fill in the blank: the reported growth inhibition of `O=C(N/C(=C\c1cc(Cl)ccc1Cl)c1nc2ccc(Cl)cc2[nH]1)c1ccccc1` is ____.
Result string: 82

Query string: Any idea what growth inhibition was measured for `[O-]c1c(-c2cccc3ccccc23)sc(-c2cccc3ccccc23)[n+]1-c1ccccc1` ?
Result string: 95

###

run-description: NCI Yeast Anticancer Drug Screen. Data for the mec2-1 strain (AID 157)
test-context: S. cerevisiae mec2-1 strain, at 5.0 µM (retest, dose inferred, filed as 0.5), hits give high values
Protocol: Growth inhibition of yeast strains with defined genetic alterations is measured as a screen for potential anti-cancer activity. Selected strains with alterations in DNA damage repair or cell cycle control were exposed to compounds and growth inhibition was measured relative to vehicle treated controls. The strain used in this assay is mec2-1
This is part of a sample that, as a whole, favours compounds with a hit. Of some 79,000 tested, about 15% had one in any assay.
property-measured: growth inhibition (%)
Please respond with the number in % and leave the unit unwritten.

// below: answered molecules
CCN(CC)CCOc1c(I)cc(I)cc1I = 0
Cc1c(N=Nc2ccc(Cl)cc2)c(-c2ccccc2)n(C2OC(CO)C(O)C(O)C2O)c(=S)c1C#N (stereo not given) = -13
CCOC(=O)/C(C#N)=C\c1cccc2ccccc12 = 1

Query string: Which growth inhibition is listed for `ON(Cc1ccccc1)C(=S)c1ccccc1` ?
Result string: 19

Query string: For `NC1CCCCC1N.O=C([O-])c1ccc(N=Nc2cccc([N+](=O)[O-])c2)cc1O.O=C([O-])c1ccc(N=Nc2cccc([N+](=O)[O-])c2)cc1O.[Pt+4]` , what is its reported growth inhibition?
Result string: 18

Query string: Can you share its growth inhibition? I mean this molecule: `BrCC1(CBr)COC1`
Result string: 5

Query string: Record request: growth inhibition value, item `O=[N+]([O-])c1ccc(-c2cccc(Cl)c2)c([N+](=O)[O-])c1`
Result string: -3

Query string: Param item = CC(O)c1c2c(cc3c1CC1(C3)Cc3cc4c(c(C(C)O)c3C1)CCC4)CCC2 (stereo not given) ; retrieve measured growth inhibition.
Result string: -6

Query string: growth inhibition lookup needed for CC(=O)OC1CC2Cc3ccccc3C3(O)COC213 (stereo not given) , thanks.
Result string: 6

Query string: Which measured growth inhibition value corresponds to CC(=O)OC1CCC2(C)C(=CCC3C2CCC2(C)C(C(C)N)CCC32)C1 (stereo not given) ?
Result string: 18
